Hey, just so you know, these numbers are from paper PMC10004777.

- Tested on: MCF-7 breast cancer cells
- protocol summary: Cell viability (MTT) assay, MCF-7
- Format: cell-based
- condition info: 50 µM
- Protocol: MCF-7 is a commonly used tumor cell line. […] Cell viability was determined by MTT assay. […] After complete dissolution of the crystal, the absorbance was measured at 540 nm and expressed as the average percentage of absorbance between treated and control cells. […] Cell survival rate was calculated as the ratio of the absorbance of the cells and negative control after minus the blank absorbance respectively.
property name: Viability of Cells (% of Control)

Consider the reported Viability of Cells (% of Control) for these molecules:
C[C@H](CC(=O)C[C@@H](C)[C@H]1C[C@H](O)[C@@]2(C)C3=C(C(=O)C[C@]12C)[C@@]1(C)CCC(=O)C(C)(C)[C@@H]1C[C@@H]3O)C(=O)N1CCN(C)CC1
107.3 ± 9.1 % of Control
CCCCNC(=O)[C@H](C)CC(=O)C[C@@H](C)[C@H]1C[C@H](O)[C@@]2(C)C3=C(C(=O)C[C@]12C)[C@@]1(C)CCC(=O)C(C)(C)[C@@H]1C[C@@H]3O
114.3 ± 1.2 % of Control

Consider now this further molecule.
Challenge: Give the reported value of Viability of Cells (% of Control) for this record: Cc1ccc(CCNC(=O)[C@H](C)CC(=O)C[C@@H](C)[C@H]2C[C@H](O)[C@@]3(C)C4=C(C(=O)C[C@]23C)[C@@]2(C)CCC(=O)C(C)(C)[C@@H]2C[C@@H]4O)cc1
Response given: 118.3 ± 6.0 % of Control

====

Listed next: entries and their corresponding Viability of Cells (% of Control).
- Tested on: osteosarcoma cell line SJSA-1
- protocol summary: Cell viability (MTT) assay, SJSA-1
- Type: cell-based
- condition info: 50 µM

Consider the reported Viability of Cells (% of Control) for these molecules:
C[C@H](CC(=O)C[C@@H](C)[C@H]1C[C@H](O)[C@@]2(C)C3=C(C(=O)C[C@]12C)[C@@]1(C)CCC(=O)C(C)(C)[C@@H]1C[C@@H]3O)C(=O)N1CCN(C)CC1
87.6 ± 3.8 % of Control
CCN1CCN(C(=O)[C@H](C)CC(=O)C[C@@H](C)[C@H]2C[C@H](O)[C@@]3(C)C4=C(C(=O)C[C@]23C)[C@@]2(C)CCC(=O)C(C)(C)[C@@H]2C[C@@H]4O)CC1
70.4 ± 1.6 % of Control
C[C@H](CC(=O)C[C@@H](C)[C@H]1C[C@H](O)[C@@]2(C)C3=C(C(=O)C[C@]12C)[C@@]1(C)CCC(=O)C(C)(C)[C@@H]1C[C@@H]3O)C(=O)NC1Cc2ccccc2C1
99.2 ± 2.6 % of Control

Challenge: Give the reported value of Viability of Cells (% of Control) for this record: C[C@H](CC(=O)C[C@@H](C)[C@H]1C[C@H](O)[C@@]2(C)C3=C(C(=O)C[C@]12C)[C@@]1(C)CCC(=O)C(C)(C)[C@@H]1C[C@@H]3O)C(=O)NCCc1ccc(F)cc1
Response given: 56.1 ± 8.7 % of Control

====

Listed next: entries and their corresponding Viability of Cells (% of Control).
- System: HepG2 cells
- protocol summary: Cell viability (MTT) assay, HepG2
- Type: cell-based
- condition info: 50 µM

Consider the reported Viability of Cells (% of Control) for these compounds:
C[C@H](CC(=O)C[C@@H](C)[C@H]1C[C@H](O)[C@@]2(C)C3=C(C(=O)C[C@]12C)[C@@]1(C)CCC(=O)C(C)(C)[C@@H]1C[C@@H]3O)C(=O)NCc1ccc(F)cc1
76.6 ± 1.6 % of Control
C[C@H](CC(=O)C[C@@H](C)[C@H]1C[C@H](O)[C@@]2(C)C3=C(C(=O)C[C@]12C)[C@@]1(C)CCC(=O)C(C)(C)[C@@H]1C[C@@H]3O)C(=O)NCc1cc(Cl)cc(Cl)c1
48.1 ± 1.5 % of Control
C[C@H](CC(=O)C[C@@H](C)[C@H]1C[C@H](O)[C@@]2(C)C3=C(C(=O)C[C@]12C)[C@@]1(C)CCC(=O)C(C)(C)[C@@H]1C[C@@H]3O)C(=O)N1CCN(c2ccccc2)CC1
99.3 ± 0.2 % of Control
Cc1ccc(CCNC(=O)[C@H](C)CC(=O)C[C@@H](C)[C@H]2C[C@H](O)[C@@]3(C)C4=C(C(=O)C[C@]23C)[C@@]2(C)CCC(=O)C(C)(C)[C@@H]2C[C@@H]4O)cc1
58.8 ± 1.4 % of Control
Cc1ccc(CNC(=O)[C@H](C)CC(=O)C[C@@H](C)[C@H]2C[C@H](O)[C@@]3(C)C4=C(C(=O)C[C@]23C)[C@@]2(C)CCC(=O)C(C)(C)[C@@H]2C[C@@H]4O)cc1
69.1 ± 1.9 % of Control

Challenge: Give the reported value of Viability of Cells (% of Control) for this record: C[C@H](CC(=O)C[C@@H](C)[C@H]1C[C@H](O)[C@@]2(C)C3=C(C(=O)C[C@]12C)[C@@]1(C)CCC(=O)C(C)(C)[C@@H]1C[C@@H]3O)C(=O)N1CCN(C)CC1
Response given: 99.3 ± 4.9 % of Control

Challenge: Give the reported value of Viability of Cells (% of Control) for this record: C[C@H](CC(=O)C[C@@H](C)[C@H]1C[C@H](O)[C@@]2(C)C3=C(C(=O)C[C@]12C)[C@@]1(C)CCC(=O)C(C)(C)[C@@H]1C[C@@H]3O)C(=O)NCCc1ccc(F)cc1
Response given: 69.1 ± 2.0 % of Control

Challenge: Give the reported value of Viability of Cells (% of Control) for this record: CCN1CCN(C(=O)[C@H](C)CC(=O)C[C@@H](C)[C@H]2C[C@H](O)[C@@]3(C)C4=C(C(=O)C[C@]23C)[C@@]2(C)CCC(=O)C(C)(C)[C@@H]2C[C@@H]4O)CC1
Response given: 99.3 ± 0.2 % of Control

Challenge: Give the reported value of Viability of Cells (% of Control) for this record: CCCCNC(=O)[C@H](C)CC(=O)C[C@@H](C)[C@H]1C[C@H](O)[C@@]2(C)C3=C(C(=O)C[C@]12C)[C@@]1(C)CCC(=O)C(C)(C)[C@@H]1C[C@@H]3O
Response given: 87.2 ± 3.1 % of Control

Challenge: Give the reported value of Viability of Cells (% of Control) for this record: C[C@H](CC(=O)C[C@@H](C)[C@H]1C[C@H](O)[C@@]2(C)C3=C(C(=O)C[C@]12C)[C@@]1(C)CCC(=O)C(C)(C)[C@@H]1C[C@@H]3O)C(=O)NCc1ccc(Cl)cc1
Response given: 53.4 ± 1.0 % of Control
